- Tested on: NCI-H460
- procedure-text: NCI tumour cell line growth inhibition, 48 h
Calls of active or inactive are those of the source. Rule as the data show it: active = GI50 up to about 1.1 µM and inactive = higher.
Below: a set of entries, each annotated with reported GI50.

Problem: Enter measured GI50, system NCI-H460, for the compound shown: CC(NC(=O)/C(=C/c1ccccc1O)NC(=O)c1ccccc1)C(=O)O (stereo not given)
Result: 24.5 µM (inactive)

Problem: Print NCI-H460 GI50 for CC(C)(C)NC1=NC(C(F)(F)F)(C(F)(F)F)NC(=O)N1 .
Result: 47.4 µM (inactive)

Problem: Please respond with reported GI50 (system NCI-H460) for Cc1c2c(C(N)=O)nccc2c(C)c2c1c1ccccc1n2Cc1ccccc1 .
Result: 11.6 µM (inactive)

Problem: Specify the recorded GI50 for CCNc1cc2c3c(c1)CCN3CCC2 , system: NCI-H460.
Result: > 10 µM (inactive)

New cases:
Problem: Lab note: NCI-H460 assay, enter GI50 for CCCNC(=S)N/C=C1/C(=O)C=C(C)OC1=O here
Result: > 100 µM (inactive)

* * *

- System: SR
- procedure-text: NCI tumour cell line growth inhibition, 48 h
The source made the active and inactive calls. No stated cut-off is given here; in the data, active = GI50 up to about 1.1 µM and inactive = higher.
Return exactly one item of Yes = active, No = inactive

Worked examples, 5 compounds total:
Problem: Look up the recorded call for CC(/C=C/C(=O)c1sc(-n2nc(-c3ccccc3)cc2-c2ccccc2)nc1C)=C\c1ccccc1 in this test.
Result: No

Problem: Please indicate how the test categorized COc1ccc(/C=c2/[nH]c(=O)/c(=C\c3ccc(OCc4ccccc4)cn3)[nH]c2=O)cc1 .
Result: No

Problem: // outcome(item) with item = CC(C)(C)C(=O)CC1(O)C=C(O)C(O)(CC(=O)C(C)(C)C)O1 (stereo not given)
Result: No

Problem: Just curious, what result did C=CCC1(C#N)C(=S)NC2=C(C(=O)CC(C)(C)C2)C1c1ccccc1 (stereo not given) get here?
Result: No

Problem: Record request — test call for Cc1csc2c(P(=O)(OC(C)C)OC(C)C)c(-c3ccccc3)cn12
Result: No

Would you kindly look at the next entry?
Problem: Query: recorded result category for CC(=O)C(=Cc1ccc(C=C(C(C)=O)C(C)=O)cc1)C(C)=O in this test
Result: Yes

* * *

- Test system: CAKI-1
- procedure-text: NCI tumour cell line growth inhibition, 48 h
Activity calls are given as the source filed them. No stated cut-off is given here; in the data, active = GI50 up to about 1.1 µM and inactive = higher.
measured-endpoint: GI50

Look over these answered cases.
Problem: Specify the recorded GI50 for O=c1ccn(C/C=C/c2ccccc2)c(=S)n1C/C=C/c1ccccc1 , system: CAKI-1.
Result: > 100 µM (inactive)

Problem: Please respond with reported GI50 (system CAKI-1) for CS(=O)(=O)N(N(CCCl)S(=O)(=O)c1ccccc1)S(C)(=O)=O .
Result: > 100 µM (inactive)

Problem: Retrieve GI50 on CAKI-1; query O=c1ssc2c1Nc1c(ssc1=O)S2
Result: 17.9 µM (inactive)

Problem: Give the observed GI50 of CCc1nc(N)nc(N)c1-c1ccc(N2CCNCC2)c([N+](=O)[O-])c1 for CAKI-1.
Result: 64.3 µM (inactive)

Problem: Report its GI50 with CAKI-1 as the test system: O=C(O)CCCNS(=O)(=O)c1ccc2ccccc2c1
Result: > 100 µM (inactive)

Problem: Enter recorded GI50 with CAKI-1 for Cc1cccc(C(C)(C)C)c1NC(=O)CC1C(=O)Nc2ccccc2S1(=O)=O (stereo not drawn) here.
Result: 16.8 µM (inactive)

More entries:
Problem: Param request: GI50 | system CAKI-1 | item Cc1cn([C@H]2C[C@@H](N3C(=O)c4ccccc4C3=O)[C@@H](CO[Si](C)(C)C(C)(C)C)O2)c(=O)[nH]c1=O
Result: 53.3 µM (inactive)

Problem: Please look at C=C(CCOC)CCC1CCCCC(CN(C)C)C1=O (stereo not drawn) and tell me its recorded GI50 on CAKI-1.
Result: > 100 µM (inactive)

Problem: Please respond with reported GI50 (system CAKI-1) for Cc1cc(NS(=O)(=O)c2ccc(NC(=O)c3ccc4[nH]c5ccccc5c(=O)c4c3)cc2)no1 .
Result: > 100 µM (inactive)
